TEST SYSTEM: UniProt Q72874
Recorded Kd by entry
State just the number; it will be interpreted in nM.

CC(C)[C@H](C)C(=O)NC(=O)[C@H](O)[C@H](O)[C@@H](O)[C@@H](Oc1ccccc1)C(=O)NC(=O)[C@@H](C)C(C)C; 10.8

query: Give the observed Kd of CC(C)[C@H](C)C(=O)NC(=O)[C@H](O)[C@H](O)[C@@H](O)[C@@H](Oc1ccc(CCc2ccccc2)cc1)C(=O)NC(=O)[C@@H](C)C(C)C for UniProt Q72874.
result: 34.2

query: Give the observed Kd of COC(=O)/C=C/c1ccc(O[C@@H](C(=O)NC(=O)[C@@H](C)C(C)C)[C@H](O)[C@@H](O)[C@@H](O)C(=O)NC(=O)[C@@H](C)C(C)C)cc1 for UniProt Q72874.
result: 1.95

query: Give the observed Kd of CCO[C@@H](C(=O)NC(=O)[C@@H](C)C(C)C)[C@H](O)[C@@H](O)[C@@H](O)C(=O)NC(=O)[C@@H](C)C(C)C for UniProt Q72874.
result: 38400

query: Give the observed Kd of CC(C)[C@H](C)C(=O)NC(=O)[C@H](O)[C@H](O)[C@@H](O)[C@@H](Oc1ccccc1)C(=O)NC1c2ccccc2C[C@@H]1O (stereo partly specified) for UniProt Q72874.
result: 4.42

query: Give the observed Kd of CC(C)CN(C[C@@H](O)[C@H](Cc1ccccc1)NC(=O)O[C@H]1CCOC1)S(=O)(=O)c1ccc(N)cc1 for UniProt Q72874.
result: 1.1

----------
TEST SYSTEM: Human immunodeficiency virus type 1 protease (Human immunodeficiency virus 1) (UniProt Q72874)
Response field label: string, one of criterion met (k on strictly below 400000 M⁻¹ s⁻¹) or criterion not met.

Cc1cc(NS(=O)(=O)c2ccc(N)cc2)no1; criterion met

query: Find out if reported k on for CC(C)[C@H](C)C(=O)NC(=O)[C@H](O)[C@H](O)[C@@H](O)[C@@H](Oc1ccc(-c2cccc([N+](=O)[O-])c2)cc1)C(=O)NC(=O)[C@@H](C)C(C)C is less than 400000 M⁻¹ s⁻¹
result: criterion met

query: Find out if reported k on for CC(C)[C@H](C)C(=O)NC(=O)[C@H](O)[C@@H](O)[C@H](O)[C@@H](Oc1ccccc1)C(=O)NC(=O)[C@@H](C)C(C)C is less than 400000 M⁻¹ s⁻¹
result: criterion met

query: Find out if reported k on for CC(C)[C@H](C)C(=O)NC(=O)[C@H](O)[C@H](O)[C@@H](O)[C@@H](Oc1ccccc1)C(=O)NC1c2ccccc2C[C@@H]1O (stereo partly drawn) is less than 400000 M⁻¹ s⁻¹
result: criterion not met

query: Find out if reported k on for CC(C)CN(C[C@@H](O)[C@H](Cc1ccccc1)NC(=O)O[C@H]1CCOC1)S(=O)(=O)c1ccc(N)cc1 is less than 400000 M⁻¹ s⁻¹
result: criterion not met

query: Find out if reported k on for CC(C)[C@H](C)C(=O)NC(=O)[C@H](O)[C@H](O)[C@@H](O)[C@@H](Oc1ccccc1)C(=O)NC(=O)[C@@H](C)C(C)C is less than 400000 M⁻¹ s⁻¹
result: criterion met

query: Find out if reported k on for CC(C)[C@H](C)C(=O)NC(=O)[C@H]([O-])[C@H](O)[C@@H](O)[C@@H](Oc1ccc(C2=CC=[S+]C2)cc1)C(=O)NC(=O)[C@@H](C)C(C)C is less than 400000 M⁻¹ s⁻¹
result: criterion met

query: Find out if reported k on for CC(C)[C@H](C)C(=O)NC(=O)[C@H](O)[C@H](O)[C@@H](O)[C@@H](Oc1ccc(CCc2ccccc2)cc1)C(=O)NC(=O)[C@@H](C)C(C)C is less than 400000 M⁻¹ s⁻¹
result: criterion met

query: Find out if reported k on for O=C(NC1c2ccccc2C[C@@H]1O)[C@H](O)[C@H](O)[C@@H](O)[C@@H](Oc1ccccc1)C(=O)NC1c2ccccc2C[C@@H]1O (stereo partly drawn) is less than 400000 M⁻¹ s⁻¹
result: criterion not met

query: Find out if reported k on for CC(C)[C@H](C)C(=O)NC(=O)[C@H](O)[C@H](O)[C@@H](O)[C@@H](Oc1ccc(-c2nccs2)cc1)C(=O)NC(=O)[C@@H](C)C(C)C is less than 400000 M⁻¹ s⁻¹
result: criterion not met

query: Find out if reported k on for O=C(NC1c2ccccc2C[C@H]1O)[C@H](O)C[C@@H](O)[C@@H](Oc1ccccc1)C(=O)NC1c2ccccc2C[C@@H]1O (stereo partly drawn) is less than 400000 M⁻¹ s⁻¹
result: criterion not met

query: Find out if reported k on for CCO[C@@H](C(=O)NC(=O)[C@@H](C)C(C)C)[C@H](O)[C@@H](O)[C@@H](O)C(=O)NC(=O)[C@@H](C)C(C)C is less than 400000 M⁻¹ s⁻¹
result: criterion met

query: Find out if reported k on for COC(=O)N[C@H](C(=O)N[C@@H](Cc1ccccc1)[C@@H](O)CN(Cc1ccc(-c2ccccn2)cc1)NC(=O)[C@@H](NC(=O)OC)C(C)(C)C)C(C)(C)C is less than 400000 M⁻¹ s⁻¹
result: criterion not met
